These data points were gathered from PubChem BioAssay.

# Procedure summary: ovarian cancer cell viability with rucaparib, profiling panel, oncology-focused library, rucaparib conditional (AID 1508598)
# Experimental parameters: patient-derived ovarian cancer cells, CellTiter-Glo viability, 144 h; at 0.000305 µM; OCI-C5x cells; with rucaparib 10 µM; 100% = cells with rucaparib alone
The source made the active and inactive calls.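 How the source made its calls: active means normalized viability below 100% at a tested concentration; inactive means the rest.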
Outcome (select one): True for active, False for inactive

Solved cases (8 shown):
>>> print(df.to_string())
                                   molecule  category_label
0  CN(C)CCCn1cc(C2=C(c3c[nH]c4ccccc34)C(=O)NC2=O)c2ccccc21           False
1  Nc1nc(Cl)nc2c1ncn2[C@H]1C[C@H](O)[C@@H](CO)O1           False
2  CS(=O)c1ccc(-c2nc(-c3ccc(F)cc3)c(-c3ccncc3)[nH]2)cc1 (stereo unspecified)           False
3  CC(NC(=O)c1ccccc1N=Cc1c(O)ccc2ccccc12)c1ccccc1 (stereo unspecified)           False
4  Cn1cc(C2=C(c3ccc(Cl)cc3Cl)C(=O)NC2=O)c2ccccc21           False
5  C[C@H](NC(=O)Cc1cc(F)cc(F)c1)C(=O)N[C@H](C(=O)OC(C)(C)C)c1ccccc1           False
6  Nc1nc(F)nc2c1ncn2[C@@H]1O[C@H](COP(=O)(O)O)[C@@H](O)[C@@H]1O           False
7  CC(C)c1onc(-c2c(Cl)cccc2Cl)c1COc1ccc(/C=C/c2cccc(C(=O)O)c2)c(Cl)c1            True

Q: Which outcome was entered for the molecule NC(=O)Nc1sc(-c2ccc(F)cc2)cc1C(N)=O in this test?
Ans: False

Q: Which outcome was entered for the molecule O=C(c1ccc(OCCN2CCCCC2)cc1)c1c(-c2ccc(O)cc2)sc2cc(O)ccc12 in this test?
Ans: False

Q: Which outcome was entered for the molecule O=c1cc(N2CCOCC2)oc2c(-c3ccccc3)cccc12 in this test?
Ans: True

----------
# Procedure summary: HepG2 cytotoxicity, primary screen, cytotoxicity control for P. falciparum antimalarial project, cell-based, ATP luminescence (AID 2303);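 further: 0% = DMSO wells and 100% = digitonin-killed cells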
# Experimental parameters: HepG2 viability, 24-48 h, at 10 µM
Calls of active or inactive are those of the source.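 Rule for the calls: active = inhibition above 50%; inactive = the rest.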
Outcome (select one): 1 (active), -1 (inactive)

>>> df
                                   molecule  category_label
0  CC(CC1CCCCC1)NCc1ccccc1OCCC(=O)N1CCCC1C(N)=O (stereo not given)              -1
1  c1ccc(Oc2ccc(Nc3ccnc4cc(-c5ccc(CNCCN6CCOCC6)o5)ccc34)cc2)cc1              -1
2  COc1ccc(Nc2ncc(Cl)c(Nc3cccnc3C(N)=O)n2)cc1N1CCN(C)CC1               1
3  CN1CCN(CCCNCc2ccc(Nc3nccc(Nc4ccc(Oc5ccccc5)cc4)n3)cc2)CC1              -1

# next molecule below
Q: Which outcome was entered for the molecule CCn1c(-c2nonc2N)nc2c(-c3cccc(NC(=O)Nc4cccc(C(F)(F)F)c4)c3)ncc(OCCCN)c21 in this test?
Ans: -1

----------
# Procedure summary: differential killing of epithelial or mesenchymal cells, primary screen, imaging, PC-3E GFP, TEM4-18 mCherry, co-culture (AID 1345086);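 further: cells exposed to compound for 72 h before imaging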
# Experimental parameters: imaging cell counts, measured here: epithelial PC-3E GFP cell survival, at 1 µM
Property label: normalised cell number
Numbers only.

Compound	normalised cell number
CC(=O)OC[C@@]1(O)C[C@@]23CCC4c5ccoc5CC[C@]4(C)C2CC[C@@H]1C3 (stereo not given in full)	0.89
CC(=O)c1ccc(S(=O)(=O)NC(=O)NC2CCCCC2)cc1	0.99

Batch of 8 compounds: report normalised cell number for each.
1. C[C@]12CCC(=O)C=C1CCC1C2C(=O)C[C@@]2(C)C1CC[C@]2(O)C(=O)CO (stereo not given in full)
2. N[C@@H]1[C@@H](O)[C@H](O)[C@@H](CO)O[C@H]1O
3. CCC(=O)O[C@]1(C(=O)SCF)[C@H](C)CC2C3CC(F)C4=CC(=O)C=C[C@]4(C)C3(F)[C@@H](O)C[C@@]21C (stereo not given in full)
4. CC(C)(C)Oc1c(F)c(F)nc(F)c1Cl
5. C[C@@H]1C[C@H](O)/C=C/[C@H](O)[C@@H](O)CC(=O)O1
6. O=c1c(O)cc([C@H]2Oc3cc(O)cc(O)c3C[C@H]2O)cc2c([C@H]3Oc4cc(O)cc(O)c4C[C@@H]3O)cc(O)c(O)c12
7. CC1=CC(=O)NS(=O)(=O)O1
8. CC1(C)C(=O)C=C[C@@]2(C)C1CC(=O)[C@]1(C)C2CC[C@@]2(C)[C@H](c3ccoc3)OC(=O)[C@H]3O[C@]321 (stereo not given in full)

Ans:
1. 1.3
2. 1.08
3. 0.87
4. 0.78
5. 1.16
6. 1.03
7. 0.89
8. 0.82
